- System: MDA-MB-231 breast
- assay: NCI tumour cell line growth inhibition, 48 h; in the data active means GI50 below about 0.43 µM; inactive means the rest
Hi there, use one of these labels in your reply, thanks! YES = active, NO = inactive

Can you look up the reported call for CN1CCN(CCCOc2ccc3ncnc(Nc4ccc(Oc5cccc(C(F)(F)F)c5)c(Cl)c4)c3c2)CC1 for me? NO

Then what about the compound CO[C@H]1C[C@@H]2CC[C@@H](C)[C@@](O)(O2)C(=O)C(=O)N2CCCC[C@H]2C(=O)O[C@H]([C@H](C)C[C@@H]2CC[C@@H](OC(=O)C(C)(CO)CO)[C@H](OC)C2)CC(=O)[C@H](C)/C=C(\C)[C@@H](O)[C@@H](OC)C(=O)[C@H](C)C[C@H](C)/C=C/C=C/C=C/1C ? NO

Then what about the compound COc1cc2c3c(n(CCCn4ccnc4)c(=O)c2cc1OC)-c1ccccc1C3=O ? YES

Then what about the compound COc1cc(/C=C/C(=O)CC(=O)/C=C/c2ccc(OC(=O)CCNC34CC5CC(CC(C5)C3)C4)c(OC)c2)ccc1OC(=O)CCNC12CC3CC(CC(C3)C1)C2 ? NO

Then what about the compound CCC(=O)Nc1ccc2c(c1)CN1C(=O)c3ccccc3C1=N2 ? NO

Then what about the compound CCN(CC)CCCN1C(=O)c2c(c(C)c3c(oc4cc(O)ccc43)c2C)C1=O ? NO

Then what about the compound Cc1cc(Nc2ncc(Cl)c(Nc3ccccc3S(=O)(=O)C(C)C)n2)c(OC(C)C)cc1C1CCNCC1 ? NO

---

- Tested on: NCI-H460 lung
- assay: NCI tumour cell line growth inhibition, 48 h
measurement_type: TGI

| molecule | TGI |
| --- | --- |
| C/C(=N\[N+](C)(C)C)C(c1ccccc1)C1(c2ccccc2)C(c2ccccc2)=C1c1ccccc1 (configuration not stated) | > 100 µM |
| Fc1ccc(Nc2ccc3cc(OCCCN4CCOCC4)ccc3n2)cc1F | 8.74 µM |
| C=CCN1C(=O)N/C(=C\c2ccc(Cl)cc2)C1=O | > 100 µM |
| COc1ccc(OC)c2sc(N3C(=O)/C(=C/c4ccccc4S)N=C3c3ccccc3)nc12 | > 100 µM |
| CCN(CC)/C(=C\Cl)Nc1ccccn1 | > 100 µM |
| CC(C)C1=CC(=O)C(C)(C2=NC(C)(C)CO2)c2ccccc21 (configuration not stated) | > 100 µM |
| CN(C)c1cccc(-c2cc(=O)c3cc4c(cc3[nH]2)OCO4)c1 | 0.987 µM |
| N#C/C(=C\c1ccc(Cl)cc1)n1nnc2cc(F)c(F)cc21 | 4.86 µM |
| COc1ccc2c(c1)CC1NC2Cc2ccccc21 (configuration not stated) | > 100 µM |
| Cc1c(N(C(=O)c2cc(-c3cc(Cl)ccc3C(=O)N3Cc4ccccc4C[C@H]3CN3CCOCC3)n(C)c2C)c2ccc(O)cc2)cc(C#N)n1C | > 100 µM |

List the reported TGI of each molecule below.
1. CC1(C)C[C@H]2C3=CC[C@@H]4[C@@]5(C)CC[C@H](O)C(C)(C)[C@@H]5CC[C@@]4(C)[C@]3(C)C[C@@H](O)[C@@]23C[C@@H]1OC3=O
2. CCN(CC)CCCC(C)N/C(c1cccc(OC)c1)=c1\c(=O)[nH]n(-c2c3ccccc3nc3ccccc23)c(=O)\c1=C(/NC(C)CCCN(CC)CC)c1cccc(OC)c1 (configuration not stated)

> 100 µM
2.56 µM
